tested on: HEK-293T; test: Multiplex assay against HEK293T; assay type: toxicity, cell-based; settings: human, 48 h, 10 µM, compound concentration 10 uM, replicate 2
Parameter Population Healthy Nuclei (%): see the listing below.
OBSERVABLE: Population Healthy Nuclei (%)

COMPOUND: Oc1cccc(-c2nc(N3CCOCC3)c3oc4ncccc4c3n2)c1 [PI-103]
TARGET_UNDER_TEST: HEK-293T
OBSERVABLE: Population Healthy Nuclei (%)
MEAS_VALUE: 18
//
COMPOUND: CCCCCNC(=N)N/N=C/c1c[nH]c2ccc(OC)cc12.O=C(O)/C=C\C(=O)O [TEGASEROD MALEATE]
TARGET_UNDER_TEST: HEK-293T
OBSERVABLE: Population Healthy Nuclei (%)
MEAS_VALUE: 47
//
COMPOUND: C[C@@H](Oc1cc(-n2cnc3ccc(CN4CCN(C)CC4)cc32)sc1C(N)=O)c1ccccc1C(F)(F)F [GSK-461364]
TARGET_UNDER_TEST: HEK-293T
OBSERVABLE: Population Healthy Nuclei (%)
MEAS_VALUE: 31

###

Growth Rate listing for selected compounds.
test system: Fibroblast; test: Incucyte cell viability with human fibroblast; format: toxicity, cell-based; settings: 18 h, 10 µM, compound concentration 10 uM, replicate number 2, timepoint 18 hours; further: filed as whole numbers so only -1 and 0 and 1 occur

COMPOUND: Cc1c(C2=CCN(C(=O)N(C)C(C)C)CC2)nnn1-c1cccnc1F
Growth Rate: 1
--
COMPOUND: c1cc(CN2CCCNCCNCCCNCC2)ccc1CN1CCCNCCNCCCNCC1 [PLERIXAFOR]
Growth Rate: 0
--
COMPOUND: NS(=O)(=O)c1cc(NC(=O)Cc2ccccc2)ccc1Oc1cccc(Cl)c1 [BAY-1797]
Growth Rate: 1

###

tested on: Fibroblast; experiment: Multiplex assay against human fibroblast; type: toxicity, cell-based; settings: 24 h, 10 µM, compound concentration 10 uM, replicate 1

MOLECULE: Cl.Cn1c2c(c3ccc(Cl)c(Cl)c31)C(C#N)C1(CCNCC1)NC2=O (configuration not stated)
Population Fragmented Nuclei (%): 28

MOLECULE: CC(C)[C@H](CO)Nc1nc(Nc2cccc(Cl)c2)c2ncn(C(C)C)c2n1 [PURVALANOLA]
Population Fragmented Nuclei (%): 26

MOLECULE: CN(c1cc(C(F)(F)F)nc(OCCC(=O)O)n1)c1cccc2c1CCC2
Population Fragmented Nuclei (%): 14

MOLECULE: c1ccc(-c2oc3ncnc(NC[C@@H]4CCCO4)c3c2-c2ccccc2)cc1
Population Fragmented Nuclei (%): 43

MOLECULE: CC[C@H](Nc1ncnc2[nH]cnc12)c1nc2cccc(F)c2c(=O)n1-c1ccccc1 [IDELALISIB]
Population Fragmented Nuclei (%): 22

MOLECULE: C[C@@H](Oc1cc(-n2cnc3ccc(CN4CCN(C)CC4)cc32)sc1C(N)=O)c1ccccc1C(F)(F)F [GSK-461364]
Population Fragmented Nuclei (%): 35

MOLECULE: CCCc1cc(C)[nH]c(=O)c1CNC(=O)c1cc(-c2ccc(N3CCN(C(C)C)CC3)nc2)cc2c1cnn2C(C)C
Population Fragmented Nuclei (%): 21

###

tested on: HEK-293T; test: Multiplex assay against HEK293T; format: toxicity, cell-based; details: human, 24 h, 10 µM, compound concentration 10 uM, replicate 2
Classify as follows. Reported Population Membrane Permeable-Phenotype (%) greater than or equal to 5%: condition met. Reported Population Membrane Permeable-Phenotype (%) below: condition not met.

COMPOUND: Cc1c(Nc2ccc(S(=O)(=O)N3CCN(C)CC3)cc2F)nc2ccc(Nc3cnn(C4CC4)c3)cn2c1=O
CLASSIFICATION: condition met
--
COMPOUND: Cl.NC[C@@H]1O[C@H](C23CC4CC(CC(C4)C2)C3)Cc2c1ccc(O)c2O
CLASSIFICATION: condition met
--
COMPOUND: CCOC(=O)CCNc1cc(N2CCc3ccccc3CC2)nc(-c2ccccn2)n1
CLASSIFICATION: condition not met
--
COMPOUND: C[C@@H](Oc1cc(-n2cnc3ccc(CN4CCN(C)CC4)cc32)sc1C(N)=O)c1ccccc1C(F)(F)F [GSK-461364]
CLASSIFICATION: condition not met
--
COMPOUND: C=CC(=O)Nc1cc(-n2c(=O)ccc3cnc4ccc(-c5ccc(NS(C)(=O)=O)cc5)cc4c32)ccc1C
CLASSIFICATION: condition met
--
COMPOUND: CC[C@@]1(O)C(=O)OCc2c1cc1n(c2=O)Cc2cc3ccccc3nc2-1 [CAMPTOTHECIN]
CLASSIFICATION: condition not met

###

tested on: HEK-293T; test: Multiplex assay against HEK293T; type: toxicity, cell-based; conditions: human, 24 h, 10 µM, compound concentration 10 uM, replicate 2
OBSERVABLE: Population Mitochondria Different-Phenotype (%)

MOLECULE: CN(c1cc(C(F)(F)F)nc(OCCC(=O)O)n1)c1cccc2c1CCC2
UNIT_SPEC: %
MEAS_VALUE: 11
//
MOLECULE: CC[C@H](Nc1ncnc2[nH]cnc12)c1nc2cccc(F)c2c(=O)n1-c1ccccc1 [IDELALISIB]
UNIT_SPEC: %
MEAS_VALUE: 1
//
MOLECULE: N#CCNC(=O)c1ccc(-c2ccnc(Nc3ccc(N4CCOCC4)cc3)n2)cc1 [MOMELOTINIB]
UNIT_SPEC: %
MEAS_VALUE: 25
//
MOLECULE: CCOC(=O)CCNc1cc(N2CCc3ccccc3CC2)nc(-c2ccccn2)n1
UNIT_SPEC: %
MEAS_VALUE: 50
//
MOLECULE: CN1C(=O)[C@@H](NC(=O)c2cc3ccccc3[nH]2)N=C(c2ccccc2)c2ccccc21 [DEVAZEPIDE]
UNIT_SPEC: %
MEAS_VALUE: 47
//
MOLECULE: C=CC(=O)Nc1cc(-n2c(=O)ccc3cnc4ccc(-c5ccc(NS(C)(=O)=O)cc5)cc4c32)ccc1C
UNIT_SPEC: %
MEAS_VALUE: 30
//
MOLECULE: CC[C@@]1(O)C(=O)OCc2c1cc1n(c2=O)Cc2cc3ccccc3nc2-1 [CAMPTOTHECIN]
UNIT_SPEC: %
MEAS_VALUE: 4
//
MOLECULE: NC(=O)c1ccc2nc(-c3ccc(C4(N)CCC4)cc3)c(-c3ccccc3)n2n1 [BAY-1125976]
UNIT_SPEC: %
MEAS_VALUE: 1
//
MOLECULE: N#Cc1cccc(C(=O)Nc2cc(-c3ccccc3)nn2-c2ccccc2)c1
UNIT_SPEC: %
MEAS_VALUE: 84
//
MOLECULE: CCCc1cc(C)[nH]c(=O)c1CNC(=O)c1cc(-c2ccc(N3CCN(C(C)C)CC3)nc2)cc2c1cnn2C(C)C
UNIT_SPEC: %
MEAS_VALUE: 100
//
MOLECULE: Cc1ccc(S(=O)(=O)NC2c3ccccc3Oc3ccccc32)cc1
UNIT_SPEC: %
MEAS_VALUE: 31
//
MOLECULE: CCCCCNC(=N)N/N=C/c1c[nH]c2ccc(OC)cc12.O=C(O)/C=C\C(=O)O [TEGASEROD MALEATE]
UNIT_SPEC: %
MEAS_VALUE: 9
//
MOLECULE: CC(C)c1cc(Nc2nc(N3CCC[C@H](N)C3)ncc2C(N)=O)cc(C(C)C)n1
UNIT_SPEC: %
MEAS_VALUE: 40
//
MOLECULE: Cc1ccc(NC(=O)Nc2cc(C(F)(F)F)ccc2F)cc1Nc1ccc2c(c1)NC(=O)/C2=C\c1ccc[nH]1
UNIT_SPEC: %
MEAS_VALUE: 0

###

system: HEK-293T; assay: Multiplex assay against HEK293T; format: toxicity, cell-based; conditions: human, 48 h, 10 µM, compound concentration 10 uM, replicate 1
OBSERVABLE: Population Pyknosed Nuclei (%)

RECORD_SMILES: Cc1c(Nc2ccc(S(=O)(=O)N3CCN(C)CC3)cc2F)nc2ccc(-c3cnn(C4CC4)c3)cn2c1=O
MEAS_VALUE: 14

RECORD_SMILES: CN1CCN(Cc2ccc(-c3cnc4[nH]cc(-c5ccc6[nH]ccc6c5)c4c3)cc2)CC1
MEAS_VALUE: 66

RECORD_SMILES: CC(C)C[C@H](NC(=O)[C@H](Cc1ccccc1)NC(=O)CNC(=O)CNC(=O)[C@@H](N)Cc1ccc(O)cc1)C(=O)O
MEAS_VALUE: 27

RECORD_SMILES: N#CCNC(=O)c1ccc(-c2ccnc(Nc3ccc(N4CCOCC4)cc3)n2)cc1
MEAS_VALUE: 11

RECORD_SMILES: Oc1cccc(-c2nc(N3CCOCC3)c3oc4ncccc4c3n2)c1
MEAS_VALUE: 63

RECORD_SMILES: C[C@@H](Oc1cc(-n2cnc3ccc(CN4CCN(C)CC4)cc32)sc1C(N)=O)c1ccccc1C(F)(F)F
MEAS_VALUE: 68

RECORD_SMILES: N#Cc1cccc(C(=O)Nc2cc(-c3ccccc3)nn2-c2ccccc2)c1
MEAS_VALUE: 62

RECORD_SMILES: CC(C)c1cc(Nc2nc(N3CCC[C@H](N)C3)ncc2C(N)=O)cc(C(C)C)n1
MEAS_VALUE: 74

RECORD_SMILES: Cc1ccc(S(=O)(=O)NC2c3ccccc3Oc3ccccc32)cc1
MEAS_VALUE: 20

RECORD_SMILES: CCCc1cc(C)[nH]c(=O)c1CNC(=O)c1cc(-c2ccc(N3CCN(C(C)C)CC3)nc2)cc2c1cnn2C(C)C
MEAS_VALUE: 68

RECORD_SMILES: Cc1c(P(=S)(c2ccccc2)c2ccccc2)n2ccccc2[n+]1C/C=C/c1ccccc1.[Br-]
MEAS_VALUE: 53
